Taken from ChEMBL document CHEMBL1130895.

Target: Potassium-transporting ATPase (Homo sapiens) (UniProt P20648+P51164)
Assay: Inhibition of H+/K+ ATPase activity in buffered solution (pH 7.4) at concentration […]
Type: protein-complex assay
Could you label it t if measured inhibition is 20% or higher, and f otherwise?

Prompt line: Reported inhibition at or above 20%? COc1c(C)cnc(C2Nc3ccccc3S2)c1C (stereo not given)
Response line: f

Prompt line: Reported inhibition at or above 20%? COc1c(C)cnc(CCC2(C)Nc3cc(C(F)(F)F)ccc3S2)c1C (stereo not given)
Response line: t

Prompt line: Reported inhibition at or above 20%? COc1c(C)cnc(/C=C/C2(C)Nc3ccccc3S2)c1C (stereo not given)
Response line: t

Prompt line: Reported inhibition at or above 20%? COc1c(C)cnc(CCC2(C)Nc3cc(F)ccc3S2)c1C (stereo not given)
Response line: t

Prompt line: Reported inhibition at or above 20%? COc1c(C)cnc(CCC2(C)Nc3ccccc3S2)c1C (stereo not given)
Response line: t

Prompt line: Reported inhibition at or above 20%? COc1c(C)cnc(CCC2(C)Nc3cc(C)ccc3S2)c1C (stereo not given)
Response line: f

Prompt line: Reported inhibition at or above 20%? COc1c(C)cnc(CC2Nc3ccccc3S2)c1C (stereo not given)
Response line: t

Prompt line: Reported inhibition at or above 20%? CC1(CCc2ccccn2)Nc2ccccc2S1 (stereo not given)
Response line: f

Prompt line: Reported inhibition at or above 20%? COc1c(C)cnc(CCC2(C)Sc3ccccc3N2C)c1C (stereo not given)
Response line: f

Prompt line: Reported inhibition at or above 20%? COc1c(C)cnc(CCC2(C)Nc3ccc(Cl)cc3S2)c1C (stereo not given)
Response line: f

Prompt line: Reported inhibition at or above 20%? COc1c(C)cnc(CCCC2(C)Nc3ccccc3S2)c1C (stereo not given)
Response line: f

Prompt line: Reported inhibition at or above 20%? COc1ccc2[nH]c([S+]([O-])Cc3ncc(C)c(OC)c3C)nc2c1 (stereo not given)
Response line: t

Prompt line: Reported inhibition at or above 20%? COc1c(C)cnc(CCC2Nc3ccccc3S2)c1C (stereo not given)
Response line: t
